Compound: CCOC(=O)[C@H]1c2c(C)cccc2[C@H]2CC[C@]3(O)C[C@@]21C[C@]3(O)CN[C@@H](CC)c1ccccc1 [Compound 8]
melting point: 114 to 115 °C
//
Compound: CCOC(=O)[C@H]1c2c(C)cccc2[C@H]2CC[C@]3(O)C[C@@]21C[C@]3(O)CN[C@H](C)c1ccccc1 [Compound 6]
melting point: 104 to 105 °C
//
Compound: CCOC(=O)[C@H]1c2c(C)cccc2[C@H]2CC[C@]3(O)C[C@@]21C[C@]3(O)CNCc1ccc(OC)cc1 [Compound 11]
melting point: 224 to 225 °C
//
Compound: C#CCNC[C@@]1(O)C[C@]23C[C@@]1(O)CC[C@@H]2c1cccc(C)c1[C@@H]3C(=O)OCC [Compound 20]
melting point: 111 to 112 °C
//
Compound: CCOC(=O)[C@H]1c2c(C)cccc2[C@H]2CC[C@]3(O)C[C@@]21CC31CN(Cc2ccccc2)CO1 (some centres unmarked) [Compound 24]
melting point: 125 to 126 °C

* * *

- System: HeLa cells (cervical cancer)
- Experiment Description: MTT antiproliferative assay, HeLa
- Assay type: cell-based, human
- Assay Conditions: Homo sapiens, 30 μM, 72 h, read-out: Growth inhibition (%) ± SEM
Classification field: enter 1 (yes) for inhibition at 30 µM values not below 50%, 0 (no) for values below it.

Molecule: CCOC(=O)[C@H]1c2c(C)cccc2[C@H]2CC[C@]3(O)C[C@@]21C[C@]3(O)Cn1cnc2ccccc21 [Compound 27]
Assay Target: HeLa cells (cervical cancer)
Class Name: 0 (no)
--
Molecule: CCOC(=O)[C@H]1c2c(C)cccc2[C@H]2CC[C@]3(O)C[C@@]21C[C@]3(O)CN[C@@H](C)c1cccc2ccccc12 [Compound 13]
Assay Target: HeLa cells (cervical cancer)
Class Name: 1 (yes)
--
Molecule: CCOC(=O)[C@H]1c2c(C)cccc2[C@H]2CC[C@]3(O)C[C@@]21C[C@]3(O)CN(Cc1ccccc1)Cc1ccccc1 [Compound 17]
Assay Target: HeLa cells (cervical cancer)
Class Name: 0 (no)
--
Molecule: CCOC(=O)[C@H]1c2c(C)cccc2[C@H]2CC[C@]3(O)C[C@@]21C[C@]3(O)Cn1nnc2ccccc21 [Compound 30]
Assay Target: HeLa cells (cervical cancer)
Class Name: 0 (no)
--
Molecule: CCOC(=O)[C@H]1c2c(C)cccc2C2CC[C@]3(O)C[C@@]21C[C@]3(O)CN[C@H](C)c1cccc2ccccc12 (stereo partly shown) [Compound 14]
Assay Target: HeLa cells (cervical cancer)
Class Name: 1 (yes)
--
Molecule: CCOC(=O)[C@H]1c2c(C)cccc2[C@H]2CC[C@]3(O)C[C@@]21C[C@]3(O)CN[C@H](CC)c1ccccc1 [Compound 7]
Assay Target: HeLa cells (cervical cancer)
Class Name: 0 (no)
--
Molecule: CCOC(=O)[C@@H]1c2c(C)cccc2C2CC[C@]3(O)C[C@@]21C[C@]3(O)CN[C@@H](C)c1ccc2ccccc2c1 (stereo partly shown) [Compound 35]
Assay Target: HeLa cells (cervical cancer)
Class Name: 1 (yes)

* * *

Each item that follows carries a reported melting point.

Compound Structure String: CCOC(=O)[C@H]1c2c(C)cccc2[C@H]2CC[C@]3(O)C[C@@]21C[C@]3(O)CN1CCCCC1
melting point: 84 to 86 °C
//
Compound Structure String: CCOC(=O)[C@H]1c2c(C)cccc2[C@H]2CC[C@]3(O)C[C@@]21C[C@]3(O)CN(Cc1ccccc1)Cc1ccccc1
melting point: 101.4 to 103 °C
//
Compound Structure String: CCOC(=O)[C@H]1c2c(C)cccc2[C@H]2CC[C@]3(O)C[C@@]21C[C@]3(O)CN[C@H](CC)c1ccccc1
melting point: 55 to 57 °C
//
Compound Structure String: CCOC(=O)[C@H]1c2c(C)cccc2[C@H]2CC[C@]3(O)C[C@@]21C[C@]3(O)CNCc1cccc2ccccc12
melting point: 71 to 74 °C
//
Compound Structure String: CCOC(=O)[C@H]1c2c(C)cccc2[C@H]2CC[C@]3(O)C[C@@]21C[C@]3(O)CN
melting point: 92 to 94 °C
//
Compound Structure String: CCOC(=O)[C@H]1c2c(C)cccc2[C@H]2CC[C@]3(O)C[C@@]21C[C@]3(O)CN(C)Cc1ccccc1
melting point: 94 to 95 °C
//
Compound Structure String: CCOC(=O)[C@H]1c2c(C)cccc2[C@H]2CC[C@]3(O)C[C@@]21C[C@]3(O)Cn1ccnn1
melting point: 90 to 92 °C

* * *

- System: HeLa cells (cervical cancer)
- Experiment Description: MTT antiproliferative assay, HeLa
- Type: cell-based, human
- Assay Conditions: Homo sapiens, 30 μM, 72 h, read-out: Growth inhibition (%) ± SEM
- Method: The in vitro antiproliferative activities of the synthesized aminodiols 4–38 against a panel of different human cancer cell lines of gynecological origin, including cervical (SiHA and HeLa), breast (MCF7 and MDA-MB-231), and ovary (A2780) cancers were assayed by the MTT method. […] Cisplatin, a clinically applied anticancer agent, was used as a reference compound and the results are summarized in Figure 3 and Table S1 in Supporting Information. […]
Classification field: enter 1 for inhibition at 30 µM values not below 50%, 0 for values below it.

Compound: CCOC(=O)[C@H]1c2c(C)cccc2[C@H]2CC[C@]3(O)C[C@@]21C[C@]3(O)CN [Compound 25]
Class Name: 0
--
Compound: CCOC(=O)[C@H]1c2c(C)cccc2[C@H]2CC[C@]3(O)C[C@@]21C[C@]3(O)CNCc1cn(Cc2ccccc2)nn1 [Compound 31]
Class Name: 0
--
Compound: CCOC(=O)[C@H]1c2c(C)cccc2[C@H]2CC[C@]3(O)C[C@@]21CC31CN(Cc2ccccc2)CO1 (stereo partly shown) [Compound 24]
Class Name: 1
--
Compound: CCOC(=O)[C@H]1c2c(C)cccc2[C@H]2CC[C@]3(O)C[C@@]21C[C@]3(O)Cn1ccnc1 [Compound 26]
Class Name: 0
--
Compound: CCOC(=O)[C@H]1c2c(C)cccc2[C@H]2CC[C@]3(O)C[C@@]21C[C@]3(O)CNCc1ccc(F)cc1 [Compound 9]
Class Name: 0
--
Compound: CCOC(=O)[C@@H]1c2c(C)cccc2C2CC[C@]3(O)C[C@@]21C[C@]3(O)CN[C@@H](C)c1cccc2ccccc12 (stereo partly shown) [Compound 36]
Class Name: 1
--
Compound: CCOC(=O)[C@H]1c2c(C)cccc2[C@H]2CC[C@]3(O)C[C@@]21C[C@]3(O)CN[C@H](C)c1ccccc1 [Compound 6]
Class Name: 1
--
Compound: CCOC(=O)[C@H]1c2c(C)cccc2[C@H]2CC[C@]3(O)C[C@@]21C[C@]3(O)CN(C)Cc1ccccc1 [Compound 16]
Class Name: 0
--
Compound: CCOC(=O)[C@H]1c2c(C)cccc2[C@H]2CC[C@]3(O)C[C@@]21C[C@]3(O)CN[C@@H](C)c1ccc(F)cc1 [Compound 10]
Class Name: 1
--
Compound: CCOC(=O)[C@H]1c2c(C)cccc2[C@H]2CC[C@]3(O)C[C@@]21C[C@]3(O)CNCc1cccc2ccccc12 [Compound 15]
Class Name: 1
--
Compound: CCOC(=O)[C@@H]1c2c(C)cccc2C2CC[C@]3(O)C[C@@]21C[C@]3(O)CN[C@H](C)c1cccc2ccccc12 (stereo partly shown) [Compound 37]
Class Name: 1
--
Compound: CCOC(=O)[C@H]1c2c(C)cccc2[C@H]2CC[C@]3(O)C[C@@]21C[C@]3(O)CNCc1ccc(OC)cc1 [Compound 11]
Class Name: 1
--
Compound: CCOC(=O)[C@H]1c2c(C)cccc2[C@H]2CC[C@]3(O)C[C@@]21C[C@]3(O)CNCc1ccccc1 [Compound 4]
Class Name: 0
--
Compound: CCOC(=O)[C@@H]1c2c(C)cccc2C2CC[C@]3(O)C[C@@]21C[C@]3(O)CNCc1cccc2ccccc12 (stereo partly shown) [Compound 38]
Class Name: 1
--
Compound: CCOC(=O)[C@H]1c2c(C)cccc2[C@H]2CC[C@]3(O)C[C@@]21C[C@]3(O)CN[C@@H](CC)c1ccccc1 [Compound 8]
Class Name: 1

* * *

Each item that follows carries a reported IC50.
- System: SiHa cells (cervical cancer)
- Experiment Description: MTT antiproliferative assay, SiHa
- Type: cell-based, human
- Assay Conditions: Homo sapiens, 72 h
Metric Name: IC50 (µM)

Molecule: CCOC(=O)[C@H]1c2c(C)cccc2[C@H]2CC[C@]3(O)C[C@@]21C[C@]3(O)CN[C@@H](C)c1cccc2ccccc12 [Compound 13]
Readout Unit: µM
Numeric Readout: 4.69
--
Molecule: CCOC(=O)[C@H]1c2c(C)cccc2C2CC[C@]3(O)C[C@@]21C[C@]3(O)CN[C@H](C)c1cccc2ccccc12 (some centres unmarked) [Compound 14]
Readout Unit: µM
Numeric Readout: 5.25

* * *

Each item that follows carries a reported inhibition at 10 µM.
- Tested on: HeLa cells (cervical cancer)
- Experiment Description: MTT antiproliferative assay, HeLa
- Assay type: cell-based, human
- Assay Conditions: Homo sapiens, 10 μM, 72 h, read-out: Growth inhibition (%) ± SEM
Metric Name: inhibition at 10 µM (%)

Molecule: CCOC(=O)[C@H]1c2c(C)cccc2[C@H]2CC[C@]3(O)C[C@@]21C[C@]3(O)CN[C@@H](C)c1cccc2ccccc12 [Compound 13]
Assay Target: HeLa cells (cervical cancer)
Metric Name: inhibition at 10 µM
Readout Unit: %
Sign Qualifier: =
Numeric Readout: 97.2
//
Molecule: CCOC(=O)[C@H]1c2c(C)cccc2[C@H]2CC[C@]3(O)C[C@@]21C[C@]3(O)CN[C@H](C)c1ccccc1 [Compound 6]
Assay Target: HeLa cells (cervical cancer)
Metric Name: inhibition at 10 µM
Readout Unit: %
Sign Qualifier: =
Numeric Readout: 21.4
//
Molecule: CCOC(=O)[C@@H]1c2c(C)cccc2C2CC[C@]3(O)C[C@@]21C[C@]3(O)CNCc1cccc2ccccc12 (some centres unmarked) [Compound 38]
Assay Target: HeLa cells (cervical cancer)
Metric Name: inhibition at 10 µM
Readout Unit: %
Sign Qualifier: =
Numeric Readout: 26.9
//
Molecule: CCOC(=O)[C@H]1c2c(C)cccc2[C@H]2CC[C@]3(O)C[C@@]21C[C@]3(O)Cn1cnc2ccccc21 [Compound 27]
Assay Target: HeLa cells (cervical cancer)
Metric Name: inhibition at 10 µM
Readout Unit: %
Sign Qualifier: <
Numeric Readout: 20
//
Molecule: CCOC(=O)[C@H]1c2c(C)cccc2[C@H]2CC[C@]3(O)C[C@@]21C[C@]3(O)CN [Compound 25]
Assay Target: HeLa cells (cervical cancer)
Metric Name: inhibition at 10 µM
Readout Unit: %
Sign Qualifier: <
Numeric Readout: 20
//
Molecule: CCOC(=O)[C@H]1c2c(C)cccc2[C@H]2CC[C@]3(O)C[C@@]21C[C@]3(O)CNCc1cccc2ccccc12 [Compound 15]
Assay Target: HeLa cells (cervical cancer)
Metric Name: inhibition at 10 µM
Readout Unit: %
Sign Qualifier: =
Numeric Readout: 28.2
//
Molecule: CCOC(=O)[C@@H]1c2c(C)cccc2C2CC[C@]3(O)C[C@@]21C[C@]3(O)CN[C@@H](C)c1cccc2ccccc12 (some centres unmarked) [Compound 36]
Assay Target: HeLa cells (cervical cancer)
Metric Name: inhibition at 10 µM
Readout Unit: %
Sign Qualifier: =
Numeric Readout: 31.1
//
Molecule: CCOC(=O)[C@H]1c2c(C)cccc2[C@H]2CC[C@]3(O)C[C@@]21C[C@]3(O)CN[C@H](CC)c1ccccc1 [Compound 7]
Assay Target: HeLa cells (cervical cancer)
Metric Name: inhibition at 10 µM
Readout Unit: %
Sign Qualifier: <
Numeric Readout: 20
//
Molecule: CCOC(=O)[C@H]1c2c(C)cccc2C2CC[C@]3(O)C[C@@]21C[C@]3(O)CN[C@H](C)c1cccc2ccccc12 (some centres unmarked) [Compound 14]
Assay Target: HeLa cells (cervical cancer)
Metric Name: inhibition at 10 µM
Readout Unit: %
Sign Qualifier: =
Numeric Readout: 98.1
//
Molecule: CCOC(=O)[C@H]1c2c(C)cccc2[C@H]2CC[C@]3(O)C[C@@]21C[C@]3(O)CNCc1ccc(F)cc1 [Compound 9]
Assay Target: HeLa cells (cervical cancer)
Metric Name: inhibition at 10 µM
Readout Unit: %
Sign Qualifier: <
Numeric Readout: 20
//
Molecule: CCOC(=O)[C@H]1c2c(C)cccc2[C@H]2CC[C@]3(O)C[C@@]21C[C@]3(O)CNCc1cn(Cc2ccccc2)nn1 [Compound 31]
Assay Target: HeLa cells (cervical cancer)
Metric Name: inhibition at 10 µM
Readout Unit: %
Sign Qualifier: <
Numeric Readout: 20
//
Molecule: CCOC(=O)[C@H]1c2c(C)cccc2[C@H]2CC[C@]3(O)C[C@@]21C[C@]3(O)CNCc1ccccc1 [Compound 4]
Assay Target: HeLa cells (cervical cancer)
Metric Name: inhibition at 10 µM
Readout Unit: %
Sign Qualifier: =
Numeric Readout: 26.9
//
Molecule: CCOC(=O)[C@H]1c2c(C)cccc2[C@H]2CC[C@]3(O)C[C@@]21C[C@]3(O)CN[C@@H](C)c1ccccc1 [Compound 5]
Assay Target: HeLa cells (cervical cancer)
Metric Name: inhibition at 10 µM
Readout Unit: %
Sign Qualifier: =
Numeric Readout: 22.3
//
Molecule: CCOC(=O)[C@H]1c2c(C)cccc2[C@H]2CC[C@]3(O)C[C@@]21C[C@]3(O)Cn1nnc2ccccc21 [Compound 30]
Assay Target: HeLa cells (cervical cancer)
Metric Name: inhibition at 10 µM
Readout Unit: %
Sign Qualifier: <
Numeric Readout: 20
